Assay: Biodistribution in rats
Type: in vivo, male rats
Conditions: 240 min post-injection, i.v.
Method: Biodistribution in Rats--Methods The quantitative biodistribution was studied in male rats at 2 minutes, 1 hour and 4 hours post-injection Rats under light anaesthesia were injected intravenously with 0.1 ml of test agent. Three rats were sacrificed (anaesthesia followed by exsanguination) at 2, 60 and 240 minutes, post-injection. The percentage of the injected dose in the excreta and organs and tissues was determined by dissection and assay for radioactivity in an automatic gamma counter.
Collected Gut values appear next to each entry.
Field format: number, assumed percent injected dose, no unit text.

{"molecule": "CCC(=NO)C(C)(C)NCCCCNC(C)(C)C=NO [Compound VII]", "propertyMeasured": "Gut", "resultNumber": 31.3}
{"molecule": "CCC(=NO)C(C)(C)NCCCCNC(C)(C)C(CC)=NO [Compound VIII]", "propertyMeasured": "Gut", "resultNumber": 46.7}

GET /value?item= CC(=NO)C(C)(C)NCCCCNC(C)(C)C(C)=NO [Compound I] &field=Gut returns 24.4

GET /value?item= COC(=O)C(CCCNC(C)(C)C(C)=NO)NC(C)(C)C(C)=NO (stereo not drawn) [Compound XVI] &field=Gut returns 12.4

GET /value?item= CC(=NO)C(C)(C)NCCCCCNC(C)(C)C(Cn1ccnc1[N+](=O)[O-])=NO [Compound IV] &field=Gut returns 60.0

GET /value?item= CC(C)(C=NO)NCCCCNC(C)(C)C=NO [Compound VI] &field=Gut returns 21.2

---

Collected Bladder/Urine values appear next to each entry.
Assay: Biodistribution in rats
Format: in vivo, male rats
Details: 2 min post-injection, i.v.
Procedure: Biodistribution in Rats--Methods The quantitative biodistribution was studied in male rats at 2 minutes, 1 hour and 4 hours post-injection Rats under light anaesthesia were injected intravenously with 0.1 ml of test agent. Three rats were sacrificed (anaesthesia followed by exsanguination) at 2, 60 and 240 minutes, post-injection. The percentage of the injected dose in the excreta and organs and tissues was determined by dissection and assay for radioactivity in an automatic gamma counter.
Field format: number, assumed percent injected dose, no unit text.

# example entries with known answers
{"compound": "CC(=NO)C(C)(C)NCCCCNC(C)(C)C(Cn1ccnc1[N+](=O)[O-])=NO [Compound II]", "propertyMeasured": "Bladder/Urine", "resultNumber": 1.0}
{"compound": "CC(C)(C=NO)NCCCCNC(C)(C)C=NO [Compound VI]", "propertyMeasured": "Bladder/Urine", "resultNumber": 0.6}
{"compound": "CC(=NO)C(C)(C)NCCCNC(C)(C)C(Cn1ccnc1[N+](=O)[O-])=NO [Compound V, reference compound]", "propertyMeasured": "Bladder/Urine", "resultNumber": 0.3}
{"compound": "CCC(=NO)C(C)(C)NCCCCNC(C)(C)C=NO [Compound VII]", "propertyMeasured": "Bladder/Urine", "resultNumber": 0.8}
{"compound": "CC(=NO)C(C)(C)NCCCNC(C)(C)C(C)=NO [Compound X, reference compound]", "propertyMeasured": "Bladder/Urine", "resultNumber": 0.1}

GET /value?item= CC(=NO)C(C)(C)NCCCCCNC(C)(C)C(Cn1ccnc1[N+](=O)[O-])=NO [Compound IV] &field=Bladder/Urine returns 0.4

GET /value?item= CC(=NO)C(C)NCCCCNC(C)C(C)=NO (stereo not shown) [Compound XIII] &field=Bladder/Urine returns 1.1

GET /value?item= CCC(=NO)C(C)(C)NCCCCNC(C)(C)C(CC)=NO [Compound VIII] &field=Bladder/Urine returns 0.6

GET /value?item= COC(=O)C(CCCNC(C)(C)C(C)=NO)NC(C)(C)C(C)=NO (stereo not shown) [Compound XVI] &field=Bladder/Urine returns 0.3

GET /value?item= COCC(=NO)C(C)(COC)NCCCCNC(C)(COC)C(COC)=NO (stereo not shown) [Compound XV] &field=Bladder/Urine returns 1.2

These entries and their values trace back to patent US5997843A.
